Data origin, for the record: PubChem BioAssay AID330

Catalogue of T/C readings, one per entry.
Test system: P388 leukemia ip, CD2F1 mice, survival T/C
Assay: NCI In Vivo Anticancer Drug Screen. Data for tumor model P388 Leukemia (intraperitoneal) in CD2F1 (CDF1) mice
Settings: endpoint: median survival time; dose: 100.0 mg/kg/injection; schedule: Q04DX003 (ip); vehicle: saline; higher = longer survival
Toxic doses and inconclusive results are not listed.

• C=C[C@@](C)(O)CC/C=C(/C)CCC=C(C)C = 109 % of control
• O=[N+]([O-])c1c(Nc2ccccc2)nc(-c2ccccc2)nc1Nc1ccccc1 = 90 % of control
• CC(C(=O)O)C(Nc1ncnc2c1ncn2C1OC(CO)C(O)C1O)C(=O)O (stereo unspecified) = 98 % of control
• CC1(C)COC(=O)/C1=C1\SC(=O)NC1=O = 95 % of control
• S=c1[nH]nc2nc3c4ccccc4c4ccccc4c3nn12 = 95 % of control

Req: Fill in T/C for record CCOC(=O)N[N+]12CCN(CC1)CC2
Resp: 100 % of control

Req: Quickly give me recorded T/C for C1=NCCN=Cc2ccccc2NCCNc2ccccc21
Resp: 93 % of control
